Target: DPP IV (Homo sapiens, UniProt P27487)
Sequence (P27487 whole entry, species assumed): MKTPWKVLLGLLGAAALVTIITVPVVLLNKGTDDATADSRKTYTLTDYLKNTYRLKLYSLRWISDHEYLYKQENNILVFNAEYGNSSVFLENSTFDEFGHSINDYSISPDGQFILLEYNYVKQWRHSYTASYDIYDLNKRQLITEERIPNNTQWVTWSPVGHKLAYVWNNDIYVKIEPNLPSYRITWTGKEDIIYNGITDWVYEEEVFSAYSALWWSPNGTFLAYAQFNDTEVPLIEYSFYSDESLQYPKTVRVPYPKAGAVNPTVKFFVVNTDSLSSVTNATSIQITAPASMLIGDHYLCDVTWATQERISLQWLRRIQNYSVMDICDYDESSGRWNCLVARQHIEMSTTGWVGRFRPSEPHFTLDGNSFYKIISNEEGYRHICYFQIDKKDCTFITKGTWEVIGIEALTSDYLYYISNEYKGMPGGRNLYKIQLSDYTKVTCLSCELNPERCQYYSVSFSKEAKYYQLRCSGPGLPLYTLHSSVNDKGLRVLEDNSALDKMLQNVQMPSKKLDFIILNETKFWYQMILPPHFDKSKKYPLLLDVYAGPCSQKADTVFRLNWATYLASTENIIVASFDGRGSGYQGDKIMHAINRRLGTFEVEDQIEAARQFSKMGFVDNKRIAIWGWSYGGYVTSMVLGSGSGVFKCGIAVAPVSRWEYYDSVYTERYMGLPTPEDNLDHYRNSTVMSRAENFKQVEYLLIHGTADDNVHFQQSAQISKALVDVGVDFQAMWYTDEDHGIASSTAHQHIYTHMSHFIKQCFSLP
Assay: Stability against DPP IV enzyme
Format: in vitro ADME
Conditions: 2 μM peptidomimetic, 37° C., 24 h
Non-standard residues stand in square brackets, D forms with d. Residues, ends and D or L forms follow the SMILES beside them. ξ: configuration not given here. *: point of attachment. X3 = CCc1cc(OC)ccc1-c1ccc(CC(N*)C(=S)NC(CCCc2ccccc2)C(N)=O)cc1; Leu(5,5,5,5',5',5'-F6) = N[C@@H](CC(C(F)(F)F)C(F)(F)F)C(=O)O; ξαMePhe(2-F) = CC(N)(Cc1ccccc1F)C(=O)O; aThr = C[C@H](O)[C@H](N)C(=O)O; Aib = CC(C)(N)C(=O)O
Parameter measured: % degradation of peptidomimetics in 24 h when incubated with DPP-IV enzyme (%)
Write the answer as a number in %, unit excluded.

CCc1cc(OC)ccc1-c1ccc(CC(CNC(CCCc2ccccc2)C(N)=O)NC[C@H](CC(=O)O)NC(=O)[C@H](CO)NC(=O)[C@@H](NC(=O)C(C)(Cc2ccccc2F)NC(=O)[C@@H](NC(=O)CNC(=O)[C@H](CCC(N)=O)NC(=O)C(C)(C)NC(=O)[C@H](Cc2c[nH]cn2)NC(=O)OC)[C@@H](C)O)[C@@H](C)O)cc1 (single isomer, unassigned) = 00
CCc1cc(OC)ccc1-c1ccc(CC(C(=O)N(C)C(CCCc2ccccc2F)C(N)=O)N(C)C(=O)[C@H](CC(=O)O)NC(=O)[C@H](CO)NC(=O)[C@@H](NC(=O)C(C)(Cc2ccccc2F)NC(=O)[C@@H](NC(=O)CNC(=O)C(CCC#N)NC(=O)C(C)(C)NC(=O)[C@@H](N)Cc2c[nH]cn2)[C@H](C)O)[C@H](C)O)cc1 (single isomer, unassigned) = 76

Read the next record carefully.
Indicate its recorded % degradation of peptidomimetics in 24 h when incubated with DPP-IV enzyme; the compound in question is CCc1cc(OC)ccc1-c1ccc(CC(NC(=O)[C@H](CC(=O)O)NC(=O)[C@H](CO)NC(=O)[C@@H](NC(=O)C(C)(Cc2ccccc2F)NC(=O)[C@@H](NC(=O)CNC(=O)[C@H](CC(C(F)(F)F)C(F)(F)F)NC(=O)C(C)(C)NC(=O)[C@@H](N)Cc2c[nH]cn2)[C@H](C)O)[C@H](C)O)C(=S)NC(CCCc2ccccc2)C(N)=O)cc1 (stereo partly drawn) [compound 219] (H-H[Aib][Leu(5,5,5,5',5',5'-F6)]G[aThr][ξαMePhe(2-F)][aThr]SD-X3)
00
